Where do the numbers come from? From patent US20060165739A1.

assay: Fish diagram phase study: surfactant concentration (C) and sebum fraction in oil (F) where Type IV microemulsion forms; type: physicochemical; settings: [NaCl] 0.50%; co-oil with artificial sebum, WOR=1
endpoint: Concentration (C) of surfactant at which Type IV microemulsion forms (% wt.)

molecule	unitsSymbol	reportedValue
CC(C)CCCC(C)CCCC(C)CCCCC(C)CCCC(C)CCCC(C)C (stereo not shown)	% wt.	25
CCCCCCCCCCCC(=O)OCC [EL, ethyl laurate]	% wt.	25
CCCCCCCCCCCCCC(=O)OC(C)C [IPM, isopropyl myristate]	% wt.	25

====

Collected sebum fraction in oil (F) at which Type IV microemulsion forms values appear next to each entry.
experiment: Fish diagram phase study: surfactant concentration (C) and sebum fraction in oil (F) where Type IV microemulsion forms; type: physicochemical; conditions: [NaCl] 0.50%; co-oil with artificial sebum, WOR=1
endpoint: sebum fraction in oil (F) at which Type IV microemulsion forms

compound	reportedValue
CC(C)CCCC(C)CCCC(C)CCCCC(C)CCCC(C)CCCC(C)C (stereo not shown)	0.35
CCCCCCCCCCCCCC(=O)OC(C)C [IPM, isopropyl myristate]	0.5
CC(C)=CCC/C(C)=C/CC/C(C)=C/CC/C=C(\C)CC/C=C(\C)CCC=C(C)C	0.45
CCCCCCCCCCCC(=O)OCC [EL, ethyl laurate]	0.4
